Recorded values, source PubChem BioAssay (NCI).

# Tested on: CAKI-1 renal
# PROCEDURE TEXT: NCI-60 one-dose screen, 48 h
# PROTOCOL CONDITIONS: 10 µM unless noted
Compounds without any hit were thinned out: in the full panel of roughly 83,000, 20% have a hit. Active and inactive are the calls of the source. The calls were made as follows: active = growth percent below 10; inactive = the rest.
Pick one: true (active), false (inactive)

>>> answer_label("C1=C[C@H]2O[C@@H]1c1ccc3[nH]ccc3c12")
"false"

Q: Given "CN(C)c1ccc(N=Nc2ccc3ccccc3c2)cc1" , state the outcome it received in this test.
A: false

Q: Try this molecule next: "Cc1ccc(S(=O)(=O)NCCCNc2nccc(-c3c(-c4cccc(F)c4)nc4occn34)n2)cc1"
A: false

Q: Item: "CCOC(=O)c1c[nH]c2cc(OCC3CC3)c(OCC3CC3)cc2c1=O"
A: false

Q: What do we get for "COC(=O)[C@]12CCC(C)(C)C[C@H]1C1=CC[C@@H]3[C@@]4(C)C/C(=C/c5cccnc5)C(=O)C(C)(C)[C@@H]4CC[C@@]3(C)[C@]1(C)CC2" ?
A: true

###

# Test system: SF-268 CNS
# PROCEDURE TEXT: NCI-60 one-dose screen, 48 h (100 = growth as untreated, 0 = no growth, -100 = all killed)
# PROTOCOL CONDITIONS: 10 µM unless noted
About 83,000 compounds went through this panel and 20% of them were active in at least one assay; those are over-represented in the sample as a whole. Activity calls are given as the source filed them. How the source made its calls: active means growth percent below 10; inactive means the rest.
Kindly state growth for each of the entries shown.

Illustrative cases are given below, each with its answer.
>>> recorded_result("CN(Cc1cccc(C(F)(F)F)c1)C(=O)[C@@H](CC(=O)N1CCC(N2CCCCC2)CC1)N1C(=O)[C@@H](N2C(=O)OC[C@@H]2c2ccccc2)[C@H]1/C=C/c1ccccc1")
"77.8% (inactive)"
>>> recorded_result("O=C1COCCN1c1ccc(NCc2cn(Cc3ccc(F)cc3)c3ccccc23)cc1")
"96.2% (inactive)"
>>> recorded_result("Cn1ncc2c(Nc3ccc(O)cc3)nc(Cl)nc21")
"97.7% (inactive)"
>>> recorded_result("O=C(N/N=C\\c1cc(Cl)ccc1O)N/N=C/c1cc(Cl)ccc1O")
"57.9% (inactive)"
>>> recorded_result("CC(=O)OC[C@]12CC[C@@H](C(=O)CBr)[C@@H]1[C@H]1CC[C@@H]3[C@@]4(C)CCCNC(C)(C)[C@@H]4CC[C@@]3(C)[C@]1(C)CC2")
"-65.5% [100 µM] (active)"
>>> recorded_result("CC[C@]12C=CCN3CC[C@@]4(c5ccc(OC)cc5N(C)[C@H]4[C@@](O)(C(=O)OC)[C@@H]1OC(=O)CCC(=O)O[C@H]1CC[C@H]4[C@@H]5CCC6=CC(=O)CC[C@@H]6[C@H]5CC[C@]14C)[C@@H]32")
"31.9% [100 µM] (inactive)"
>>> recorded_result("O=C(Nc1ccccc1)Nc1ccc(C(=O)/C=C/c2ccc(N3CCCC3)cc2)cc1")
"57.6% (inactive)"
>>> recorded_result("c1nc(N2CCOCC2)c2[nH]ccc2n1")
"102% (inactive)"
>>> recorded_result("O=C(O)c1cccc(CN2CCN(c3cc4c(cc3F)c(=O)c(C(=O)O)cn4C3CC3)CC2)c1O")
"105% (inactive)"
>>> recorded_result("COc1ccc2nc3ccccc3c(NCCNCCO)c2c1")
"-27.9% (active)"

Items follow; give growth for each.
1. C=C(C)[C@@H]1CC[C@]2(C(N)=O)CC[C@]3(C)[C@H](CC[C@@H]4[C@@]5(C)CC[C@H](O)C(C)(C)[C@@H]5CC[C@]43C)[C@@H]12
2. C[C@]12CCc3c(ccc4cc(O)ccc34)[C@@H]1CC[C@H]2O
3. CC1Cc2c(Cl)ncnc2N(C)c2ccccc21 (stereo not drawn)
4. Cc1ccc(NC(=O)N[C@@H](Cc2cc(F)cc(F)c2)C(=O)N[C@@H]2C(=O)N3CCC[C@H]3C(=O)N3CCCC[C@H]3C(=O)N[C@@H](C)C(=O)N3C[C@H](C)C[C@H]3C(=O)O[C@H]2C)cc1
5. Cn1cc(-c2nnc(-c3cn(C)c4ncc(Br)cc34)o2)c2ccccc21

A:
["4.41% [100 µM] (active)", "91.4% (inactive)", "24.4% (inactive)", "28.8% (inactive)", "89.1% (inactive)"]

Would you be so kind as to report growth for each listed record?
1. CC(C)C1=NOC(=O)C1=Cc1cn(-c2ccco2)nc1-c1ccccc1
2. CSc1nc2c(c(=O)n1C)C1(C(=O)N(Cc3ccccc3)c3ccccc31)c1c(nc(SC)n(C)c1=O)N2
3. O=C(Nc1cc(-c2cccnc2)nc(NCCCN2CCOCC2)n1)c1cc(Br)cc(C(F)(F)F)c1
4. Nc1ccc2c(c1)Cc1cc(NC(=O)C(F)(F)F)ccc1-2
5. Nn1c(Nc2ccc(S(=O)(=O)Nc3ncccn3)cc2)nnc(/C=C/c2c(O)ccc3ccccc23)c1=O
6. Clc1ccc(/C=N/Nc2nc3ccccc3s2)c(Cl)c1

A:
90.5% (inactive)
97.2% (inactive)
60.9% (inactive)
96.1% (inactive)
84.7% (inactive)
85.4% (inactive)

###

# Test system: T-47D breast
# PROCEDURE TEXT: NCI-60 one-dose screen, 48 h (100 = growth as untreated, 0 = no growth, -100 = all killed)
# PROTOCOL CONDITIONS: 10 µM unless noted
# Description: Growth inhibition of the T-47D human tumor cell line is measured as a screen for anti-cancer activity. Cells are grown in 96 well plates and exposed to the test compound for 48 hours. Compounds are tested at a single concentration, which is 10^-5 M for most compounds. The reported endpoint is percent growth (GI% or GIPRCNT), where numbers from 0 - 100% represent growth inhibition, and numbers from -100% - 0 represent cell death. For example, a value of 40 represents 60% growth inhibition. […]
The panel holds about 83,000 compounds, 20% with a hit somewhere; the sample as a whole holds those more often. The source made the active and inactive calls. How the source made its calls: active means growth percent below 10; inactive means the rest.
Answer each item with its documented growth.

Recorded growth, per entry:
>>> recorded_result("COc1ncnc2c(-c3ccccc3)cn(COCc3ccccc3)c12")
"14% (inactive)"
>>> recorded_result("COc1ccc(-c2cc(-c3ccccc3)nc(SCCCCCC(=O)NO)n2)cc1")
"22.7% (inactive)"

// each compound listed below needs its growth
1. NC1=NC(=O)NC1(c1ccccc1)c1ccccc1
2. O=C(Nc1ccc(Cl)c(C(F)(F)F)c1)Nc1ccc(-c2cccnc2)cc1N1CCC(CO)CC1
3. O=C1C(Cl)=C(Nc2ccc3cn[nH]c3c2)C(=O)c2ccccc21
4. CCOC(=O)c1nn(C2CCCCO2)c2ccc(NC(=O)CSc3nc4ccccc4c(=O)[nH]3)cc12 (stereo not drawn)
5. Cc1ccc(N)c(O)c1

A:
["80.3% (inactive)", "5.62% (active)", "-52.3% (active)", "99.1% (inactive)", "94.1% (inactive)"]

###

# Test system: A498 renal
# PROCEDURE TEXT: NCI-60 one-dose screen, 48 h (100 = growth as untreated, 0 = no growth, -100 = all killed)
# PROTOCOL CONDITIONS: 10 µM unless noted
# Experimental: Growth inhibition of the A498 human tumor cell line is measured as a screen for anti-cancer activity. Cells are grown in 96 well plates and exposed to the test compound for 48 hours. Compounds are tested at a single concentration, which is 10^-5 M for most compounds. The reported endpoint is percent growth (GI% or GIPRCNT), where numbers from 0 - 100% represent growth inhibition, and numbers from -100% - 0 represent cell death. For example, a value of 40 represents 60% growth inhibition. […]
This is part of a sample that, as a whole, favours compounds with a hit. Of some 83,000 tested, about 20% had one in any assay.
Kindly return criterion met if reported growth is no lower than 70%; return criterion not met if it is lower.

Below, 3 compounds whose answers are already recorded.
>>> answer_label("Cc1ccc(S(=O)(=O)N/N=C2\\CC3CCC2(C)C3(C)C)cc1 (stereo not given)")
"criterion met"
>>> answer_label("O=c1cc(-c2ccccc2)oc2c(O)c(O)ccc12")
"criterion met"
>>> answer_label("O=C(NNc1ccc(-c2ccccc2)nn1)c1ccc(F)cc1")
"criterion not met"

Q: Exam item: decide whether the reported growth for "[2H]C1([2H])CCN(C(=O)C2CC2)c2cc(NS(=O)(=O)c3ccc(-c4cccc(C(N)=O)c4)cc3)ccc21" is at least 70%.
A: criterion not met

Q: Next entry: "COc1ccc(N(c2nc(-c3ccc([N+](=O)[O-])cc3)cs2)C(C)C)cc1"
A: criterion not met

###

# Tested on: COLO 205 colon
# PROCEDURE TEXT: NCI-60 one-dose screen, 48 h
# PROTOCOL CONDITIONS: 10 µM unless noted
This is part of a sample that, as a whole, favours compounds with a hit. Of some 83,000 tested, about 20% had one in any assay. Calls of active or inactive are those of the source. How the source made its calls: active means growth percent below 10; inactive means the rest.
The reply should name one outcome from Yes for active, No for inactive

Answered cases to consult:
>>> answer_label("O=C1/C(=C\\c2cn(CC(O)CN3CCCCC3)c3ccccc23)c2ccccc2N1c1c(Cl)cccc1Cl (stereo not given)")
"Yes"
>>> answer_label("O=C1/C(=C\\c2cccn2Cc2ccccc2)c2ccccc2N1c1c(Cl)cccc1Cl")
"Yes"
>>> answer_label("C=C(C)[C@@H]1CC[C@]2(C(=O)NCCCN)CC[C@]3(C)[C@H](CC[C@@H]4[C@@]5(C)CC[C@H](O)C(C)(C)[C@@H]5CC[C@]43C)[C@@H]12")
"Yes"

Q: // return assay outcome for CCN(CC)c1ccc2cc(C(Nc3ccc(Cl)cc3)c3nnnn3C(C)(C)C)c(=O)oc2c1 (stereo not given)
A: No

Q: Also "N/C(=N\c1nc2ccccc2[nH]1)NC(=O)Cc1cccc2ccccc12" ?
A: No

Q: Could you do the same for "O=C1/C(=C/c2cccc(OCc3ccccc3)c2)Oc2cc(OCCN3CCCCC3)ccc21" , please?
A: No

Q: Try this molecule too: "CCOC(CNC(=O)c1cccc([N+](=O)[O-])c1)OCC"
A: No

Q: Also "CC(C)OC(=O)Nc1cc(F)c(F)cc1F" , if possible.
A: No

Q: Please answer likewise for "CC(C)CCSC1=CC(=O)c2ccccc2C1=O"
A: No

Q: Then "COCCCNc1nc(NC(=O)c2cc(Br)cc(C(F)(F)F)c2)cc(-c2cccnc2)n1" ?
A: No
